Test system: SR leukemia
Assay: NCI-60 one-dose screen, 48 h (100 = growth as untreated, 0 = no growth, -100 = all killed)
Conditions: 10 µM
About 83,000 compounds went through this panel and 20% of them were active in at least one assay; those are over-represented in the sample as a whole.
Classes based on growth: bin 1 (below -10%), bin 2 (-10% to below 20%), bin 3 (20% or more)

Reference set (4 entries):
CC(=O)n1nc(C(=O)OC(C)(C)C)c2cc(F)c(F)cc21 :: bin 3
Cc1nc2cc(-n3c(-c4ccc(F)cc4)nc4ccccc4c3=O)ccc2n1Cc1ccccc1 :: bin 2
C=C1C(=O)O[C@H]2[C@H]1CC/C(COC(=O)OCCCCCOC(=O)OC/C1=C/CC[C@@]3(C)O[C@H]3[C@H]3OC(=O)C(=C)[C@@H]3CC1)=C\CC[C@@]1(C)O[C@@H]21 :: bin 1
COc1ccc(-c2n/c(=C\c3c(O)[nH]c4ccccc34)cc3c2=Nc2ccccc2-3)cc1 :: bin 2

(Q) Which category does the recorded growth put `CCCCCCCCCCN=C(c1ccc(N(C)C)cc1)c1ccc(N(C)C)cc1` in?
(A) bin 3

(Q) State the band of `O=C1/C(=C/c2ccc([N+](=O)[O-])s2)Oc2ccc(Cl)cc21`
(A) bin 2

(Q) Each molecule maps to one class by growth. Which class for `O=C(CCl)N1c2ccccc2Sc2ccc3ccccc3c21` ?
(A) bin 1

(Q) Consider `O=C(c1ccc(Cl)cc1)c1no[n+]([O-])c1C(=O)c1ccc(Cl)cc1` . To which growth class does it belong?
(A) bin 1

(Q) Given `C[C@]12CC[C@H]3[C@@H](CC=C4C[C@@H](O)CC[C@@]43C)[C@@H]1CC[C@@H]2C(=O)C/C=N/O` , name the class its growth places it in.
(A) bin 3
